tested on: PXR:RXRa (NR concentration 270 nM, RXRa partner concentration 90 nM); assay: PBM binding z-score (relative to random genomic background probes); higher = stronger binding; sequences stand for … in GC…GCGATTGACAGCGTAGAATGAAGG
measuredAttribute: PBM binding z-score

Some sequences with known PBM binding z-score results, for comparison:
[
  {
    "itemSequence": "CGTCCAAGGGCAAGGTCAGTGAAAGAGACTCGAA",
    "tgt": "PXR:RXRa (NR concentration 270 nM, RXRa partner concentration 90 nM)",
    "PBM binding z-score": 1.68
  },
  {
    "itemSequence": "CAACCTAGGTCAGGGCCAGTATAGGAGGAACGTT",
    "tgt": "PXR:RXRa (NR concentration 270 nM, RXRa partner concentration 90 nM)",
    "PBM binding z-score": 0.478
  },
  {
    "itemSequence": "CCTTACGGGTCACTGACAGGTTAAAGCATTTGGA",
    "tgt": "PXR:RXRa (NR concentration 270 nM, RXRa partner concentration 90 nM)",
    "PBM binding z-score": 3.98
  },
  {
    "itemSequence": "CTACCAAGGTGAACAAGGTGGTTGATTACTATTC",
    "tgt": "PXR:RXRa (NR concentration 270 nM, RXRa partner concentration 90 nM)",
    "PBM binding z-score": 0.111
  }
]

We now examine a further sequence.
Sample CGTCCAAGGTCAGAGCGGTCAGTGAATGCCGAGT — what was its PBM binding z-score? 3.25

====

system: RARg homodimer (NR concentration 270 nM); experiment: PBM binding z-score (relative to random genomic background probes); higher = stronger binding; sequences stand for … in GC…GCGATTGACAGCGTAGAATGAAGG
measuredAttribute: PBM binding z-score
Number, no unit, nothing else.

Some sequences with known PBM binding z-score results, for comparison:
[
  {
    "itemSequence": "AATACAGGGTCAGTAGGCCAGAGTAGGTACGAAT",
    "observedMeasurement": 4.31
  },
  {
    "itemSequence": "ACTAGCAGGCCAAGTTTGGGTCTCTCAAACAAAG",
    "observedMeasurement": -0.0296
  }
]

Sample TCTCAGAGGACACGAAGGTCAGAGCTTTCCAGAG — what was its PBM binding z-score? 4.66

====

tested on: RARg:RXRa (NR concentration 270 nM, RXRa partner concentration 90 nM); assay: PBM binding z-score (relative to random genomic background probes); higher = stronger binding; sequences stand for … in GC…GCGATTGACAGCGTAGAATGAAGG
Measured PBM binding z-score values are reported for all entries that follow.
Number, no unit, nothing else.

Some sequences with known PBM binding z-score results, for comparison:
[
  {
    "itemSequence": "TGTGAAAGTTCAAAGGTAACGTAAGTATCCACAC",
    "tgt": "RARg:RXRa (NR concentration 270 nM, RXRa partner concentration 90 nM)",
    "PBM binding z-score": 5.88
  },
  {
    "itemSequence": "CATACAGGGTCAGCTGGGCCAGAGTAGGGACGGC",
    "tgt": "RARg:RXRa (NR concentration 270 nM, RXRa partner concentration 90 nM)",
    "PBM binding z-score": 4.6
  },
  {
    "itemSequence": "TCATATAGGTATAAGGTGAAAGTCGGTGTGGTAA",
    "tgt": "RARg:RXRa (NR concentration 270 nM, RXRa partner concentration 90 nM)",
    "PBM binding z-score": 0.768
  }
]

Sample TTACCAAGGTGAAAGGTCTTTGATGCACGCCTTG — what was its PBM binding z-score? 1.67

Sample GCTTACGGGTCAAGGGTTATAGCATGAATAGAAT — what was its PBM binding z-score? 5.54

====

system: THRa homodimer (NR concentration 90 nM); assay: PBM binding z-score (relative to random genomic background probes); higher = stronger binding; sequences stand for … in GC…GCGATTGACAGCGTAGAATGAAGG
Cut-off 0.2 on PBM binding z-score, inclusive. At or above means MET; below means NOT MET.

Answered cases to consult:
[
  {
    "itemSequence": "CCTTACGGCTCACTCCAGGTTATAGCATCGGAGT",
    "group": "MET"
  },
  {
    "itemSequence": "AGAACGATGGCAATGAGTTGATAGCACGGGTGGC",
    "group": "NOT MET"
  }
]

Determine whether this sequence has PBM binding z-score no lower than 0.2: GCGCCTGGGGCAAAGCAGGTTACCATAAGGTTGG NOT MET

Determine whether this sequence has PBM binding z-score no lower than 0.2: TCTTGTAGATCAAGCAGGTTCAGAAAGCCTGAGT NOT MET

Determine whether this sequence has PBM binding z-score no lower than 0.2: CCAGACAGGTGAAAGGTAACTCAGTCTGGTACGC NOT MET

Determine whether this sequence has PBM binding z-score no lower than 0.2: GATACAGGGTCAGCTAGAGGCCAGATTATGGAAA MET

Determine whether this sequence has PBM binding z-score no lower than 0.2: CCGACTGGGTCAAGGTTACCATAACGCACAGCCA MET

Determine whether this sequence has PBM binding z-score no lower than 0.2: TAGCCTAGGTCATGCGGGCTAGTATAGTGTCGGC MET

Determine whether this sequence has PBM binding z-score no lower than 0.2: GCGGCTAGGTCAGGTTGGTCAGCTAACGGGTACG MET

Determine whether this sequence has PBM binding z-score no lower than 0.2: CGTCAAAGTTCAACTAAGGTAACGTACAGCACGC MET

====

Measured PBM binding z-score values are reported for all entries that follow.
test system: PPARg homodimer (NR concentration 180 nM); test: PBM binding z-score (relative to random genomic background probes); higher = stronger binding; sequences stand for … in GC…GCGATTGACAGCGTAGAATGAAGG
Number, no unit, nothing else.

Sample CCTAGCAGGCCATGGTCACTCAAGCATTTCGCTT — what was its PBM binding z-score? -0.683

Sample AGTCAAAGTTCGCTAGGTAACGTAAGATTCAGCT — what was its PBM binding z-score? 0.129

Sample TTACCAAGGTGAAAGCTCGTTGATGCACGCCTTG — what was its PBM binding z-score? -0.529

Sample ATAGACAGGTGATGAAGGTAACTCAGGCTATCAT — what was its PBM binding z-score? 0.341

Sample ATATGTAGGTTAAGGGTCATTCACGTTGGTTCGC — what was its PBM binding z-score? 4.43

Sample TCCCGGAGGACACGAAGGTCAGAGCTTTCCAGAG — what was its PBM binding z-score? 1.3

Sample TCATATAGGTAATACAGGTCAAAGTCGGCATCTA — what was its PBM binding z-score? 2.8

Sample CCTAGCAGGCCAATCTGGGCCACTCAAGGCTTGA — what was its PBM binding z-score? -0.99

Sample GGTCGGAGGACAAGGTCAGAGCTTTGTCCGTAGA — what was its PBM binding z-score? 1.09

Sample AGAATGAGGTTAAGATCAGGGCAACAGAATACAT — what was its PBM binding z-score? 1.05

Sample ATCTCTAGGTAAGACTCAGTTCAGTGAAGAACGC — what was its PBM binding z-score? 1.11

====

test system: PPARg:RXRa IVT, anti-PPARg (NR concentration 270 nM, RXRa partner concentration 90 nM); experiment: PBM binding z-score (relative to random genomic background probes); higher = stronger binding; sequences stand for … in GC…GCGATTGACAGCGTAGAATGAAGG
Cut-off 2 on PBM binding z-score, inclusive. At or above means true; below means false.

[
  {
    "itemSequence": "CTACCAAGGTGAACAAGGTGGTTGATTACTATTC",
    "group": "true"
  },
  {
    "itemSequence": "CCAGGCAGGTGAGAAGGTAACTCAGCCTCGATTA",
    "group": "false"
  },
  {
    "itemSequence": "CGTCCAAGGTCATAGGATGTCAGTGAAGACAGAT",
    "group": "true"
  },
  {
    "itemSequence": "CCTTACGGGTCACTGCAGGTTATAGCATCGGAGT",
    "group": "true"
  },
  {
    "itemSequence": "CAAACTAGATCAAAGGTCAAAGTCGAGCCAACCA",
    "group": "true"
  },
  {
    "itemSequence": "ACTATTAGTTGACTTAGGGCAACCGCTACGACGC",
    "group": "false"
  },
  {
    "itemSequence": "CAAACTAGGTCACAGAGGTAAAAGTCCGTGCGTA",
    "group": "true"
  },
  {
    "itemSequence": "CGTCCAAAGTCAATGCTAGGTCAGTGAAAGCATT",
    "group": "false"
  }
]

Determine whether this sequence has PBM binding z-score no lower than 2: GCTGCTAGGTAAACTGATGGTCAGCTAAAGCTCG false

Determine whether this sequence has PBM binding z-score no lower than 2: TAGCCTATGTCATTCAGGGGCCAGTATAGAAAGC false
